The origin of these recorded values is paper PMC8587047.

Test system: SW620
Test: MTT cytotoxicity assay, SW620
Format: cell-based
Conditions: Homo sapiens, SW-620; MTT, 72 h, mean ± SD; read-out: IC50 SW620
Description: We selected four different cancer cell lines for antiproliferative screening in vitro, which we believed would provide sufficient data on the anticancer potential of the prepared harmirins (hepatocellular carcinoma—HepG2, colorectal adenocarcinoma, Dukes’ type C—SW620, colorectal carcinoma—HCT116, and breast adenocarcinoma—MCF-7). Additionally, we included one non-cancer cell line (embryonic kidney—HEK293T) to evaluate harmirins’ selectivity. […]
Please provide measured IC50 for the entries that follow.

[ask] Find the recorded IC50 belonging to O=c1cc(OCc2cn(Cc3nccc4c3[nH]c3ccccc34)nn2)c2ccccc2o1 [4a] and report it.
[reply] > 50 µM

[ask] IC50 for O=c1cc(OCc2cn(Cc3nccc4c3[nH]c3ccccc34)nn2)c2cc(F)ccc2o1 [4d] ?
[reply] > 50 µM

[ask] I'd like to know its IC50. The compound in question is Cc1nc(Cn2cc(COc3cc(=O)oc4ccccc34)nn2)cc2c1[nH]c1ccccc12 [5a]
[reply] > 50 µM

[ask] What value of IC50 has been reported for the following compound? O=c1[nH]cc(F)c(=O)[nH]1 [5-FU, 5-fluorouracil, reference compound]
[reply] 9.4 µM

[ask] Please report the recorded IC50 for COc1ccc2c3ccnc(C)c3n(Cc3cn(-c4cc(=O)oc5ccccc45)nn3)c2c1 [13a] .
[reply] > 50 µM

[ask] Request the reported IC50 associated with COc1ccc2c3ccnc(C)c3n(Cc3cn(-c4cc(=O)oc5ccc(C)cc45)nn3)c2c1 [13b]
[reply] > 50 µM

[ask] // IC50 lookup, key: Cc1ccc2oc(=O)cc(OCc3cn(Cc4nccc5c4[nH]c4ccccc45)nn3)c2c1 [4b]
[reply] > 50 µM

[ask] Any idea what its IC50 is? The compound is Cc1ccc2oc(=O)cc(-n3cc(COc4ccc5[nH]c6c(C)nccc6c5c4)nn3)c2c1 [11b]
[reply] > 50 µM
